Biological target: Programmed cell death protein 1/Programmed cell death 1 ligand 1 (Homo sapiens, UniProt Q9NZQ7)
Sequence (Q15116 whole entry): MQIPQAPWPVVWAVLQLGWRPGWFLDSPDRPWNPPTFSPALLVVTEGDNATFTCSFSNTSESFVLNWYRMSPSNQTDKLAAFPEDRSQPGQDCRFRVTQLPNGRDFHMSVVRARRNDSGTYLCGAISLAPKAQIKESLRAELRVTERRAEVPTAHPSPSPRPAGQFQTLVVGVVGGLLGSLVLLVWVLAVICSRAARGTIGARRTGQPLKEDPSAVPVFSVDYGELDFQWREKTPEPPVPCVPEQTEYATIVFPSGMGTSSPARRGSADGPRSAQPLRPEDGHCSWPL
Sequence (Q9NZQ7 whole entry): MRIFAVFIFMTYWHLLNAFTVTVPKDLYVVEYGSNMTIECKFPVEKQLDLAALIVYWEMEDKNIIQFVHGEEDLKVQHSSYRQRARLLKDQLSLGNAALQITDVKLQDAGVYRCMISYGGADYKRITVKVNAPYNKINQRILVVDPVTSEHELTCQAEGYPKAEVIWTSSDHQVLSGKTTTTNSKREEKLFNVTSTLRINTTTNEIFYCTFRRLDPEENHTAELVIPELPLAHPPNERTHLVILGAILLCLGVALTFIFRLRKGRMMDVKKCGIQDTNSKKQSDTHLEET
Test: Inhibition of PD-1/PD-L1 interaction (unknown origin) incubated for 24 hrs by HTRF assay
pIC50: −log10 of the molar value.
Recorded endpoint: pIC50

Asked: Give the measured pIC50 for Cc1c(NC(=O)c2nc3c(n2C)CCN(C[C@H](C)O)C3)cccc1-c1cccc(NC(=O)c2nc3c(n2C)CCN(C)C3)c1Cl
Given back: > 9.00

====

Tested on: B16-F10
Experiment: Antiproliferative activity against mouse B16-F10 cells assessed as reduction in cell viability
Type: functional, cell-based
Recorded endpoint: IC50 (µM)
Write the value in µM as a bare number.

Asked: Give the measured IC50 for COc1cc(OCc2cccc(-c3ccccc3)c2C)cc(OC)c1CNCCNC(=O)c1cn(CCOCCOCCOCCNc2cccc3c2C(=O)N(C2CCC(=O)NC2=O)C3=O)nn1 (stereo unspecified)
Given back: 14

The reported measurements were obtained from ChEMBL document CHEMBL5385962.
